TARGET ENTITY: Neuraminidase (Influenza A virus)
PROTOCOL DETAILS: Inhibition of recombinant Influenza A virus H5N1 neuraminidase
OBSERVABLE: inhibition

O=c1cc(O)cc([C@H]2c3c(cc(/C=C/c4ccc(O)c(O)c4)oc3=O)O[C@@H]2c2ccc(O)c(O)c2)o1 = Dose-dependent effect
CC1=CC(=O)C2(O1)c1c(cc(/C=C/c3ccc(O)c(O)c3)oc1=O)OC2c1ccc(O)c(O)c1 (stereo not given) = Dose-dependent effect
O=c1oc2cc(/C=C/c3ccc(O)c(O)c3)oc(=O)c2c2cc(O)c(O)cc12 = Dose-dependent effect
CC1=CC(=O)[C@H](c2c(O)cc(/C=C/c3ccc(O)c(O)c3)oc2=O)[C@@H](c2ccc(O)c(O)c2)O1 = Dose-dependent effect
O=c1cc(O)cc(/C=C/c2ccc(O)c(O)c2)o1 = Dose-dependent effect
